Source of measurements: patent US8343698B2

Test system: salmonella of TA1535
MEASUREMENT_DESCRIPTION: Mutation test (Ames test), plate method
Assay type: cell-based
TEST_SETTINGS: strain TA1535, plate method, under metabolic activity condition; 625 to 10,000 micro gram/plate; maximum number of colonies divided by colonies in control solvent; tested on the TMPTA monomer of each example
Returns one of T or F; T when Colony increase multiple is >= 2.

Kindly determine if Colony increase multiple recorded for C=CC(=O)OCC(CC)(COC(=O)C=C)COC(=O)C=C [Ex. 2, trimethylol propane triacrylate] is above or exactly 2.
F

Kindly determine if Colony increase multiple recorded for C=CC(=O)OCC(CC)(COC(=O)C=C)COC(=O)C=C [Ex. 4, trimethylol propane triacrylate] is above or exactly 2.
F

Kindly determine if Colony increase multiple recorded for C=CC(=O)OCC(CC)(COC(=O)C=C)COC(=O)C=C [Ex. 12, trimethylol propane triacrylate] is above or exactly 2.
F

Kindly determine if Colony increase multiple recorded for C=CC(=O)OCC(CC)(COC(=O)C=C)COC(=O)C=C [Ex. 3, trimethylol propane triacrylate] is above or exactly 2.
F

Kindly determine if Colony increase multiple recorded for C=CC(=O)OCC(CC)(COC(=O)C=C)COC(=O)C=C [Comp. 2, trimethylol propane triacrylate] is above or exactly 2.
T

Kindly determine if Colony increase multiple recorded for C=CC(=O)OCC(CC)(COC(=O)C=C)COC(=O)C=C [Ex. 9, trimethylol propane triacrylate] is above or exactly 2.
T

Kindly determine if Colony increase multiple recorded for C=CC(=O)OCC(CC)(COC(=O)C=C)COC(=O)C=C [Ex. 8, trimethylol propane triacrylate] is above or exactly 2.
T

Kindly determine if Colony increase multiple recorded for C=CC(=O)OCC(CC)(COC(=O)C=C)COC(=O)C=C [Ex. 10, trimethylol propane triacrylate] is above or exactly 2.
F

Kindly determine if Colony increase multiple recorded for C=CC(=O)OCC(CC)(COC(=O)C=C)COC(=O)C=C [Comp. 3, trimethylol propane triacrylate] is above or exactly 2.
T

Kindly determine if Colony increase multiple recorded for C=CC(=O)OCC(CC)(COC(=O)C=C)COC(=O)C=C [Ex. 7, trimethylol propane triacrylate] is above or exactly 2.
F

Kindly determine if Colony increase multiple recorded for C=CC(=O)OCC(CC)(COC(=O)C=C)COC(=O)C=C [Ex. 11, trimethylol propane triacrylate] is above or exactly 2.
F

Kindly determine if Colony increase multiple recorded for C=CC(=O)OCC(CC)(COC(=O)C=C)COC(=O)C=C [Comp. 1, trimethylol propane triacrylate] is above or exactly 2.
T

Kindly determine if Colony increase multiple recorded for C=CC(=O)OCC(CC)(COC(=O)C=C)COC(=O)C=C [Ex. 6, trimethylol propane triacrylate] is above or exactly 2.
T

Kindly determine if Colony increase multiple recorded for C=CC(=O)OCC(CC)(COC(=O)C=C)COC(=O)C=C [Ex. 5, trimethylol propane triacrylate] is above or exactly 2.
F

Kindly determine if Colony increase multiple recorded for C=CC(=O)OCC(CC)(COC(=O)C=C)COC(=O)C=C [Ex. 1, trimethylol propane triacrylate] is above or exactly 2.
F
